Target System: Cholesteryl ester transfer protein (Homo sapiens, UniProt P11597)
Sequence (P11597 whole entry): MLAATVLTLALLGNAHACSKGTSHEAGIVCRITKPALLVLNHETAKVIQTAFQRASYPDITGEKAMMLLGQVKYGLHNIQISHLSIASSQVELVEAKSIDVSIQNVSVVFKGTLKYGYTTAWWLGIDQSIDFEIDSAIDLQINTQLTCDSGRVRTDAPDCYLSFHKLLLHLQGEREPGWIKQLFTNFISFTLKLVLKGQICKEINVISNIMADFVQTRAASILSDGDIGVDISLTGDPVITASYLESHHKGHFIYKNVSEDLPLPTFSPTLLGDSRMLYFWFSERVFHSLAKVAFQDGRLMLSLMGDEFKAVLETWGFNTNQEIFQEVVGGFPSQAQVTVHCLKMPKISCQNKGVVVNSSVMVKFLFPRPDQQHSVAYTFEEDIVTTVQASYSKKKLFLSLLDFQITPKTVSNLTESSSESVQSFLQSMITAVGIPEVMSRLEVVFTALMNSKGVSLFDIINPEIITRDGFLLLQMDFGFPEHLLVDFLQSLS
Protocol Notes: Inhibition of CETP in human plasma assessed as reduction in fluorescent intensity by fluorescence analysis
Entries and their measured IC50 follow.
Enter your answer as a number in nM; do not include the unit.

Example molecules with recorded IC50:
Molecule	Unit	IC50
CC(=O)N(Cc1cc(C(F)(F)F)cc(C(F)(F)F)c1)[C@H]1C[C@@H](C2CC2)N(C(=O)OC(C)C)c2ccc(C(F)(F)F)nc21 (racemic)	nM	980
CC[C@@H]1C[C@H](N(Cc2cc(C(F)(F)F)cc(C(F)(F)F)c2)c2nnn(C)n2)c2nc(C(F)(F)F)ccc2N1C(=O)OCCN1CCOCC1	nM	2110

Would you please give the reported IC50 of CC[C@@H]1C[C@H](N(Cc2cc(C(F)(F)F)cc(C(F)(F)F)c2)c2nnn(C)n2)c2nc(C)ccc2N1C(=O)OC(C)C (racemic) with Cholesteryl ester transfer protein (Homo sapiens, UniProt P11597)? 61
